Biological target: T1, recombinant human LAG3 expressed with a C-terminal mouse IgG2a mFc tag (human)
T1 construct: Called dimeric; also called hLAG3-mFc; hLAG3 dimer
T1 chain: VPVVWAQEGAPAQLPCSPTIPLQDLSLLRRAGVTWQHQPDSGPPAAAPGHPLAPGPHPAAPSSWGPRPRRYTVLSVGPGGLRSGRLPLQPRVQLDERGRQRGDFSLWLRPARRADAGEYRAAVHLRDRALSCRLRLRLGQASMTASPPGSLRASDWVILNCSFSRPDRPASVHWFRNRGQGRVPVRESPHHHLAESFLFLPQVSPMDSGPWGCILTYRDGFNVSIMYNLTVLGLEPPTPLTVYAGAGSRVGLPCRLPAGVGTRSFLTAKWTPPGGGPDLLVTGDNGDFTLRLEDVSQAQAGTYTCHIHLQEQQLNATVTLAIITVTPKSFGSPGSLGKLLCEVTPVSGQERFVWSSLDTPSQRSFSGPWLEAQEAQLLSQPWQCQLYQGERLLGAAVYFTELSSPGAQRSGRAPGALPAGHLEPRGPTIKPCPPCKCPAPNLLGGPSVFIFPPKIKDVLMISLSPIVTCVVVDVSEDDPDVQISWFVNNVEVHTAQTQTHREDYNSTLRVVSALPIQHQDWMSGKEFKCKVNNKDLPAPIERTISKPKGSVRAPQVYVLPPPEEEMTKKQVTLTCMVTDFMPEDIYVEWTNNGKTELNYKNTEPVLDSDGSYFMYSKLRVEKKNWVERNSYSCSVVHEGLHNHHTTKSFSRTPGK
Assay: SPR, mAb captured, 37 C
What Kd was measured for each of the following?
// return numeric value only (unit: pM, not printed)

## Task For the binder H4H14813N (antibody, human IgG4, V domains shown, H4H = human IgG4 Fc with S108P hinge mutation) VH: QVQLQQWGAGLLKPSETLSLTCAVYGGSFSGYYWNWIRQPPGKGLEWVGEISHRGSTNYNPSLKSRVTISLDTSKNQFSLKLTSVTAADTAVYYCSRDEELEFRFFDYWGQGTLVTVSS VL: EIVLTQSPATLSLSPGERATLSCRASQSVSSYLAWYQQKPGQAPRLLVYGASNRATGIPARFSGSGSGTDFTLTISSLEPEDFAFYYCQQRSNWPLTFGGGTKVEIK , what Kd is on record?
## Result 27.4

## Task For the binder H4H15479P (antibody, human IgG4, V domains shown) VH: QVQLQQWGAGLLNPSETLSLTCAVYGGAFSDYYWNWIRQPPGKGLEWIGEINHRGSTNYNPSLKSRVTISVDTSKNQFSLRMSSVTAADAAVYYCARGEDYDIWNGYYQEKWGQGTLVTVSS VL: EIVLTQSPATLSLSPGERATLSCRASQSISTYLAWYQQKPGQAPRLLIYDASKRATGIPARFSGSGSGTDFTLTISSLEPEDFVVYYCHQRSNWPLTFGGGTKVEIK , what Kd is on record?
## Result 3.99

## Task For the binder H4H17823P (antibody, human IgG4, V domains shown, H4H = human IgG4 Fc with S108P hinge mutation) VH: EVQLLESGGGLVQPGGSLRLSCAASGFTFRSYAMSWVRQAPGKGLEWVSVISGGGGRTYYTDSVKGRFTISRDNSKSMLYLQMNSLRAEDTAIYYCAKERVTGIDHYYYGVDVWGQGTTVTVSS VL: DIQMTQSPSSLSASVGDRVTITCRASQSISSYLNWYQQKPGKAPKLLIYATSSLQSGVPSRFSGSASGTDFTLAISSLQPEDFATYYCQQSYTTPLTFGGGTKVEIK , what Kd is on record?
## Result 437

## Task For the binder H4sH14813N (antibody, human IgG4 S228P, kappa, V domains shown, H4sH = modified human IgG4 Fc) VH: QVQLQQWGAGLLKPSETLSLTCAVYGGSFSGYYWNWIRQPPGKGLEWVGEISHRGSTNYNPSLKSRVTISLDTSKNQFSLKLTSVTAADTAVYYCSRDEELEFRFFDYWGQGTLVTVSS VL: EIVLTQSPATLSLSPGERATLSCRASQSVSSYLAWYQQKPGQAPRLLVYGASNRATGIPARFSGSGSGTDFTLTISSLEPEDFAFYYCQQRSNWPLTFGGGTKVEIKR , what Kd is on record?
## Result 29.5
